- STUDY SYSTEM: hTRPV1 (Homo sapiens)
- Construct: expressed in transfected cells; host or cells: HEK293
- Sequence (Q8NER1 whole entry): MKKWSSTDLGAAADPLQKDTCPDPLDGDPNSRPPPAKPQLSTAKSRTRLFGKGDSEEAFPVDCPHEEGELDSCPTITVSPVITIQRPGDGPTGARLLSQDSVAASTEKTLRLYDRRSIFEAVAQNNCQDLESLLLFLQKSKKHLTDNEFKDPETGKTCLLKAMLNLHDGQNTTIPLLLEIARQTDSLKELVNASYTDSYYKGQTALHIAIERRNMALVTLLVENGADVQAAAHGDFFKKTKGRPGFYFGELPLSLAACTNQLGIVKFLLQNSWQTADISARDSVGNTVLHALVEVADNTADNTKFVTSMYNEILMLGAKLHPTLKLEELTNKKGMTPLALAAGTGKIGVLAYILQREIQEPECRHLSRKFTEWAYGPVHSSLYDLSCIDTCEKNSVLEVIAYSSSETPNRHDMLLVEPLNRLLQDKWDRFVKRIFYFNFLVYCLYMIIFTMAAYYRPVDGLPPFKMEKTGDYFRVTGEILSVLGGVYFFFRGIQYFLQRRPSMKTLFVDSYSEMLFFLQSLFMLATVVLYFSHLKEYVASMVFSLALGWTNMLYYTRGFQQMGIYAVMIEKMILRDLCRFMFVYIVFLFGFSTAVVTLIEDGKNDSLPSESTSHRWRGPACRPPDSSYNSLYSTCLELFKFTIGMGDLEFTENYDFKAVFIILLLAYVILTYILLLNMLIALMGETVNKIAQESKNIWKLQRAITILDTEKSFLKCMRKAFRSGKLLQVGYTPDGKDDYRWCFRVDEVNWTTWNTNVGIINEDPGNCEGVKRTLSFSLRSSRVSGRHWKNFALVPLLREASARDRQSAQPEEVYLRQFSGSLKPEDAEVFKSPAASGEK
- METHOD DESCRIPTION: Human TRPV1 (hTRPV1) functional assay, FLIPR intracellular Ca2+, capsaicin challenge
- Assay type: cell-based
- CONDITION PARAMETERS: test concentration of 0.5 μm; HEK293 cells expressing hTRPV1, capsaicin 0.030 μM challenge; read-out: percent inhibition (symbol a)
# if value of inhibition at 0.5 µM reaches 90%, tag Satisfied; if it stays below, tag Not satisfied

molecular_string=CNS(=O)(=O)c1ccccc1-c1ccc2[nH]c(COc3ccc(C(F)(F)F)cc3)nc2c1 study_system="hTRPV1 (Homo sapiens)" class=Satisfied
molecular_string=CC(=O)Nc1ccc(-c2ccc3[nH]c(COc4ccc(C(F)(F)F)cc4)nc3c2)cc1 study_system="hTRPV1 (Homo sapiens)" class="Not satisfied"
molecular_string=NS(=O)(=O)c1ccccc1-c1ccc2[nH]c(COc3cccc(Cl)c3)nc2c1 study_system="hTRPV1 (Homo sapiens)" class="Not satisfied"
molecular_string=NS(=O)(=O)c1ccccc1-c1ccc2[nH]c(COc3ccc(C(F)(F)F)cc3)nc2c1 study_system="hTRPV1 (Homo sapiens)" class=Satisfied
molecular_string=CS(=O)(=O)Nc1ccccc1-c1ccc2[nH]c(COc3ccc(C(F)(F)F)cc3)nc2c1 study_system="hTRPV1 (Homo sapiens)" class=Satisfied
molecular_string=CNS(=O)(=O)c1ccccc1-c1ccc2[nH]c(COc3ccc(Cl)cc3)nc2c1 study_system="hTRPV1 (Homo sapiens)" class=Satisfied
molecular_string=NS(=O)(=O)c1ccccc1-c1ccc2[nH]c(COc3ccc(OC(F)(F)F)cc3)nc2c1 study_system="hTRPV1 (Homo sapiens)" class=Satisfied
